# Tested on: A549 (lung cancer)
# assay text: in vitro cytotoxicity against A549
# Type: cell-based
# applied conditions: Homo sapiens, A549; primary screening, 50 μM; read-out: Inhibition rate A549
Label N if inhibition at 50 µM falls below 1%; label Y in every other case.

INPUT: Exam item: decide whether the reported inhibition at 50 µM for COC(=O)C1=C[C@@H](O)[C@@H](O)[C@H](O)C1 [Compound 13, methyl shikimate] is at least 1%.
OUTPUT: N

INPUT: Would you mind doing COC(=O)[C@]1(Cc2ccc(O)c(CC(O)C(C)(C)O)c2)OC(=O)C(O)=C1c1ccc(O)cc1 (some centres unmarked) as well?
OUTPUT: N

INPUT: Param item: CCCCCCCc1c(O)cc(CC=C(C)C)c(O)c1C=O
OUTPUT: Y

INPUT: And what about the compound C=C1C[C@]2(O)[C@@]3(C)CCC(=O)C(C)(C)C3=C(O)C(=O)[C@@]2(C)[C@@H]2C(=O)O[C@@](C)(C(=O)OC)C(=O)[C@@]12C ?
OUTPUT: Y

INPUT: Next compound up: CC1C(=O)OCC1CC(OC(=O)c1ccccc1)C(C)(O)C1CCC2(O)C3=CC(=O)C4CC(O)C(O)CC4(C)C3CCC12C (centres unmarked)
OUTPUT: Y

* * *

# Test system: A549 (lung cancer)
# assay text: in vitro cytotoxicity against A549
# Format: cell-based
# applied conditions: Homo sapiens; A549 cells; mean ± SD; read-out: IC50 A549
reported property: IC50

INPUT: Item under review: CC(C)[C@H](C)/C=C/[C@@H](C)[C@H]1CCC2C3=CC(=O)O[C@@]3(O)CC[C@@]21C (stereo partly shown) [Compound 6, demethylincisterol A2] . Reported IC50?
OUTPUT: 50.2 µM

* * *

# System: Bacillus subtilis
# assay text: antibacterial assay, Mueller–Hinton broth microdilution
# Format: cell-based
# applied conditions: primary screening, 50 μM, read-out: Inhibition rate Bacillus subtilis
reported property: inhibition at 50 µM
The reply should consist of the numeric value with the unit placed after it.

INPUT: Fill in: inhibition at 50 µM of COC(=O)C1=C[C@@H](O)[C@@H](O)[C@H](O)C1 [Compound 13, methyl shikimate] is ___
OUTPUT: 7.69%

INPUT: One more compound: CCCCCCCc1c(O)cc(CC=C(C)C)c(O)c1C=O
OUTPUT: 17.5%

INPUT: Another compound: C=C1CCC2CC1C2(C)C1CCC(C)C(=O)O1 (stereo not shown)
OUTPUT: 9.17%

INPUT: Subsequent entry: C=CC(C)(C)[C@@]12C[C@H]3C(=O)Nc4ccccc4C(=O)N3[C@H]1N(C=O)c1ccccc12 [Compound 10, epi-aszonalenins B]
OUTPUT: 0.3%

* * *

# Test system: SF-268 (human glioblastoma carcinoma)
# assay text: in vitro cytotoxicity against SF-268
# Format: cell-based
# applied conditions: SF-268, read-out: IC50 SF-268
reported property: IC50 (µM)
Express your answer in µM, writing the number without its unit.

INPUT: Which measured IC50 belongs to COC(=O)[C@]1(Cc2ccc(O)c(CC=C(C)C)c2)OC(=O)C(O)=C1c1ccc(O)cc1 [Compound 8, butyrolactone I] , tested on SF-268 (human glioblastoma carcinoma)?
OUTPUT: 31.4

* * *

# Test system: HepG-2 (liver cancer)
# assay text: in vitro cytotoxicity against HepG-2
# Type: cell-based
# applied conditions: Homo sapiens, HepG2, read-out: IC50 HepG-2
reported property: IC50 (µM)
Reply with just the number (in µM).

INPUT: Checklist item: IC50 tested on HepG-2 (liver cancer), entry COC(=O)[C@]1(Cc2ccc(O)c(CC=C(C)C)c2)OC(=O)C(O)=C1c1ccc(O)cc1 , value?
OUTPUT: 31
